Experiment: yeast display, Sf9 membrane polyspecificity reagent, FACS + sequencing; frameworks hold sequencing errors
measurement_name: polyreactivity (PSR sort gate)

Recorded polyreactivity (PSR sort gate), per entry:
sequence_code | measurement_name | reported_value
QVQLVESGGGLVQPGGRLRISCAASGRIFGRYAMGWYRLEPGKERELVAAITSSGGNTYYADSVKGRFTISRDNAKNTVYLQMNSMKPEDTAVYYCIARSARSRRQSDYWGQGTHVTVSS | polyreactivity (PSR sort gate) | high polyreactivity
QVQLVESGGGLVQAGGSLRLSCAASGRIFYNYAMGWSRQAPGKERELVAANSGSGGSTYYADSVKGRFTISRDSAMNTVYFQMNSLKPEDTAVYYCSTSGPQYYSRNFDYWGQGTQVTVSS | polyreactivity (PSR sort gate) | low polyreactivity
QVQLVESGGGLVQAGGSLRLSCAASGYTFTHYAMGWYRQAPGKERELVASISQSGGSTYYPDSVKGSFTISRDNAQYTVYGQMNSLKPEDTAVYYCAVDYYYDQSLYEYCGQGTQVTVSS | polyreactivity (PSR sort gate) | high polyreactivity
QVQLVESGGGLVQAGGSLRLSCAASGSIFYRYAMGWSRQAPGKERELVAAISSGSSTHYADSVKGRFTMSRDNAKNTVYLQMNSLKPEDTAVYYCAARYRAYTSTRRFDYWGQGTQVTVSS | polyreactivity (PSR sort gate) | high polyreactivity

Could you now look at the following sequence, please?
Q: Reported polyreactivity (PSR sort gate), sequence QVQLVESGGGLVQAGGSLRLSCAASGSIFSKYAMGWYRQAPGKERELVAAISWSGTSTYYADSVKGRFTISRDNAKNTVYLQMNSLKPEDTAVYYCAASSPRSLSLLGYWGQGTQVTVSS : ____
Result: low polyreactivity

---

Test: yeast display, Sf9 membrane polyspecificity reagent, FACS + sequencing; frameworks hold sequencing errors
measurement_name: polyreactivity (PSR sort gate)

sequence_code | measurement_name | reported_value
QVQLVESGGGLVQAGGRLRISCAASGRTFYRYAMGWYRQAPGKERELVAAITYSGGSTNYADSVKGRFTISRDYAKNTVYLQMNSLKPEDTAVYYCATRYNVVRWPYYYWGQGTQVNVSS | polyreactivity (PSR sort gate) | high polyreactivity
QVHLVESGGGLVQAGGSLRLSCDASGLTFANNAMGWYRQAPGKEREFVAAIRGSGGSTYYADSVKGRFTISRDNAKNTVYLQMNSLKPEDTAVYYCNAGYLRKYHGWFQVKFDYWGQGTQVTVSS | polyreactivity (PSR sort gate) | low polyreactivity
QVQLVESGGGLVQAGGSLRLSCAASGRIFKYNAMGWYRQAPGKERELVAVISFSGGSTYYADSVKGRFTISRDNAKNTVYLQMNSLKPEDTAVYYCNVRQHYSRRLKKWQMDCWGQGTQVTVSS | polyreactivity (PSR sort gate) | high polyreactivity
QVQLVESGGGLVQAGGSLRLSCAASGSIFGNYAMGWYRQAPGKEREFVAAITWIGGSSYYADSVKGRFTISRDNAKNTVYLQMHSLKPEDTAVYYCARTSYARYRNGWTYDHWGQGTQVTVSS | polyreactivity (PSR sort gate) | low polyreactivity

Could you now look at the following sequence, please?
Q: Reported polyreactivity (PSR sort gate), sequence QVQLVESGGCLVQAGGSLRLSCAASGSIFEYYAMAWSRQAPGKERELVAAINSGDITKYADSVKGRFTISRDNAKNTVYLQMNSLKPEDTAVYYCAKRLSSREYYWGQGSQVTVSS : ____
Result: high polyreactivity
